Just for reference, paper PMC4893919 is where these values come from.

Test system: MeWo (No NRAS or BRAF mutation)
Assay: MTT cell viability assay, MeWo
Format: cell-based
Conditions: read-out: IC50, MeWo (No NRAS or BRAF mutation); 24 h treatment, human cell line
REPORTED ENDPOINT: IC50

Below, each entry is followed by its recorded IC50 result.
Problem: Please supply the value of reported IC50 for the item C=C1C(=O)OC2CC3=C[C@@H](C/C(C)=C/C(OC(=O)Cc4ccccc4)[C@H]12)OC3=O (stereo partly drawn) [DETD-43]
Result: > 10 µM

Problem: Please supply the value of reported IC50 for the item C=C1C(=O)OC2CC3=C[C@@H](C/C(C)=C/C(O)[C@H]12)OC3=O (stereo partly drawn) [DETD-3]
Result: > 10 µM

Next:
Problem: Please supply the value of reported IC50 for the item C=C1C(=O)OC2CC3=C[C@@H](C/C(C)=C/C(OC(=O)/C=C/C)[C@H]12)OC3=O (stereo partly drawn) [DETD-24]
Result: > 10 µM

###

Tested on: A375 (BRAF mutation)
Experiment: MTT cell viability assay, A375
Format: cell-based, human
Details: read-out: IC50, A375 (BRAF mutation); 24 h treatment, human cell line
REPORTED ENDPOINT: IC50 (µM)
Provide only the numeric value, understood in µM.

Below, each entry is followed by its recorded IC50 result.
Problem: Please supply the value of reported IC50 for the item C=C1C(=O)OC2CC3=C[C@@H](C/C(C)=C/C(OC(=O)c4ccc(C)cc4)[C@H]12)OC3=O (stereo partly drawn) [DETD-33]
Result: 2.9

Problem: Please supply the value of reported IC50 for the item C=C1C(=O)OC2CC3=C[C@@H](C/C(C)=C/C(OC(=O)/C(C)=C/CC)[C@H]12)OC3=O (stereo partly drawn) [DETD-5]
Result: 4.1

Problem: Please supply the value of reported IC50 for the item C=C1C(=O)OC2CC3=C[C@@H](C/C(C)=C/C(OC(=O)c4ccccc4)[C@H]12)OC3=O (stereo partly drawn) [DETD-31]
Result: 4.3

Next:
Problem: Please supply the value of reported IC50 for the item C=C1C(=O)OC2CC3=C[C@@H](C/C(C)=C/C(OC(=O)Cc4ccccc4)[C@H]12)OC3=O (stereo partly drawn) [DETD-43]
Result: 3.6
